molecular target: CDK5/GST-p25 (Homo sapiens, UniProt Q00535); construct: The final construct, encoding for full-length human CDK5; made in house; host or cells: Sf21 insect cells (baculovirus co-infection); assay: Inhibition of CDK5/GST-p25 kinase activity (ELISA with time-resolved fluorescence readout); assay type: biochemical; conditions: class symbols
Sequence (Q00535 whole entry): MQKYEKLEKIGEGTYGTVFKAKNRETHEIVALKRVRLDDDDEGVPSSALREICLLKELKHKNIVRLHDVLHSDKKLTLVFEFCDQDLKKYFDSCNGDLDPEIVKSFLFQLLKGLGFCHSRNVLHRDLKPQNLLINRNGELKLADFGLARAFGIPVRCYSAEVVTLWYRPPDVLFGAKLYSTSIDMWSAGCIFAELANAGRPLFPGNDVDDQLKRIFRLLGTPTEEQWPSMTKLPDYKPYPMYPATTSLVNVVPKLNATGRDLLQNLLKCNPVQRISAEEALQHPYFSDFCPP
Sequence (Q15078 108-307 partner limits assumed): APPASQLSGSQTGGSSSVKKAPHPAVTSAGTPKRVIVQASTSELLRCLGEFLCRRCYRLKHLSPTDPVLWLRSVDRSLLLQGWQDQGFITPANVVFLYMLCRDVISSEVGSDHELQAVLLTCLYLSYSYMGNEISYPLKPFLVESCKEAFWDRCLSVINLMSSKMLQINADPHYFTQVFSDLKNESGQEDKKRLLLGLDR
pIC50: −log10 of the molar value.
Experimental Readout: pIC50

INSERT INTO measurements (molecule, reported_value) VALUES
  ('CCCn1cc2c(C3C(=O)Nc4ccc(Br)cc43)nc(NCCN3CCOCC3)nc2n1 (centres unmarked)', '> 6.52'),
  ('CCCn1cc2c(C3C(=O)Nc4ccc(Br)cc43)nc(NC[C@@H]3CCCO3)nc2n1 (some centres unmarked)', '> 6.52'),
  ('O=C1Nc2ccc([N+](=O)[O-])cc2C1c1ncnc2c1cnn2C1CCCC1 (centres unmarked)', '< 5.00'),
  ('O=c1[nH]c2ccccc2n1-c1ncnc2nn(C3CCCC3)cc12', '< 5.00'),
  ('O=C1Nc2ccc(Br)cc2C1c1ncnc2c1cnn2C1CCCCC1 (centres unmarked)', '< 5.00');

Measured values drawn from patent US8354414B2 for this set.
